Assay: refractive index (Na D-line) (dimensionless)
Details: 288.15 K; 101.33 kPa; Liquid; Standard Abbe refractometry
quantity.name: refractive index
Give the figure only, with no unit attached.

## Task Give the measured refractive index of CCCCCC(=O)OCC [ethyl hexanoate] .
## Result 1.40982

## Task Give the measured refractive index of CCCCCCCCCC(=O)OCC [ethyl decanoate] .
## Result 1.42789

## Task Give the measured refractive index of CCCCCCCCCCCCCC(=O)OCC [ethyl tetradecanoate] .
## Result 1.43841

## Task Give the measured refractive index of CCCCCCCC(=O)OC [methyl octanoate] .
## Result 1.41951

## Task Give the measured refractive index of CCCCCCCCCCCC(=O)OCC [ethyl dodecanoate] .
## Result 1.43375

## Task Give the measured refractive index of CCCCCCCCCCCC(=O)OC [methyl dodecanoate] .
## Result 1.43422

## Task Give the measured refractive index of CCCCCCCCCC(=O)OC [methyl decanoate] .
## Result 1.42783

## Task Give the measured refractive index of CCCCCCC(=O)OCC [ethyl heptanoate] .
## Result 1.41562

## Task Give the measured refractive index of CCCCCCCC(=O)OCC [ethyl octanoate] .
## Result 1.42025

## Task Give the measured refractive index of CCCCCC(=O)OC [methyl hexanoate] .
## Result 1.40757

## Task Give the measured refractive index of CCCCCCC(=O)OC [methyl heptanoate] .
## Result 1.41421

====

Settings: 353.15 K; 101.33 kPa; Liquid; Vibrating tube method
quantity.name: mass density (kg/m3)
Please give a number only; it is taken to be in kg/m3.

## Task Give the measured mass density of CCCCCCC(=O)OC [methyl heptanoate] .
## Result 824.55

## Task Give the measured mass density of CCCCCCCCCCCCCC(=O)OC [methyl tetradecanoate] .
## Result 821.26

## Task Give the measured mass density of CCCCCCCCCC(=O)OC [methyl decanoate] .
## Result 822.61

## Task Give the measured mass density of CCCCCCCCCCCC(=O)OC [methyl dodecanoate] .
## Result 820.84

## Task Give the measured mass density of CCCCCCCCCCCC [dodecane] .
## Result 704.62

## Task Give the measured mass density of CCCCCCCCCC(=O)OCC [ethyl decanoate] .
## Result 814.9

## Task Give the measured mass density of CCCCCCCC(=O)OC [methyl octanoate] .
## Result 823.54

## Task Give the measured mass density of CCCCCCC(=O)OCC [ethyl heptanoate] .
## Result 814.99

## Task Give the measured mass density of CCCCCC(=O)OCC [ethyl hexanoate] .
## Result 814.13

## Task Give the measured mass density of CCCCCCCC(=O)OCC [ethyl octanoate] .
## Result 814.74

## Task Give the measured mass density of CCCCCCCCCCCC(=O)OCC [ethyl dodecanoate] .
## Result 814.95

## Task Give the measured mass density of CCCCCCCCCCCCCC(=O)OCC [ethyl tetradecanoate] .
## Result 815.26

## Task Give the measured mass density of CCCCCC(=O)OC [methyl hexanoate] .
## Result 825.97

====

Assay: refractive index (Na D-line) (dimensionless)
Conditions: 353.15 K; 101.33 kPa; Liquid; Standard Abbe refractometry
quantity.name: refractive index
Give the figure only, with no unit attached.

## Task Give the measured refractive index of CCCCCC(=O)OC [methyl hexanoate] .
## Result 1.37725

## Task Give the measured refractive index of CCCCCCCCCC(=O)OCC [ethyl decanoate] .
## Result 1.40034

## Task Give the measured refractive index of CCCCCCCCCC(=O)OC [methyl decanoate] .
## Result 1.40028

## Task Give the measured refractive index of CCCCCCCC(=O)OCC [ethyl octanoate] .
## Result 1.3917

## Task Give the measured refractive index of CCCCCCCCCCCCCC(=O)OCC [ethyl tetradecanoate] .
## Result 1.41208

## Task Give the measured refractive index of CCCCCCCC(=O)OC [methyl octanoate] .
## Result 1.39104

## Task Give the measured refractive index of CCCCCCCCCCCC(=O)OCC [ethyl dodecanoate] .
## Result 1.40684

## Task Give the measured refractive index of CCCCCCC(=O)OC [methyl heptanoate] .
## Result 1.38501

## Task Give the measured refractive index of CCCCCC(=O)OCC [ethyl hexanoate] .
## Result 1.37983

## Task Give the measured refractive index of CCCCCCCCCCCCCC(=O)OC [methyl tetradecanoate] .
## Result 1.41282

## Task Give the measured refractive index of CCCCCCC(=O)OCC [ethyl heptanoate] .
## Result 1.38645

## Task Give the measured refractive index of CCCCCCCCCCCC(=O)OC [methyl dodecanoate] .
## Result 1.40717
